Data credit: patent US20200039973A1

Assay: Measurement of LogP values by HPLC on reversed phase columns (EEC directive 79/831 Annex V.A8)
Format: physicochemical
Details: Table 1; method [a]: LC-UV, acidic range, 0.1% formic acid in water and acetonitrile as eluent
LogP reference
Observable: LogP

>>> meas_value("N#Cc1cncn1CC(O)(Cc1ccc(F)cc1)c1ccccc1 (stereo not shown) [I-05]")
"2.47^[a]"
>>> meas_value("N#Cc1cncn1CC(O)(Cc1ccc(F)cc1F)c1cc(F)ccc1F (stereo not shown) [I-27]")
"2.77^[a]"
>>> meas_value("Cc1cccc(CC(O)(Cn2cncc2C#N)c2ccc(F)cc2F)c1F (stereo not shown) [I-11]")
"2.98^[a]"
>>> meas_value("N#Cc1cncn1CC(O)(Cc1ccccc1Cl)C1(c2ccccc2)CC1 (stereo not shown) [I-15]")
"3.44^[a]"
>>> meas_value("N#Cc1cncn1CC(O)(Cc1ccccc1F)C1(c2ccccc2)CC1 (stereo not shown) [I-14]")
"3.18^[a]"
>>> meas_value("N#Cc1cncn1CC(O)(Cc1ccc(F)cc1F)c1ccc(F)cc1F (stereo not shown) [I-02]")
"2.82^[a]"
>>> meas_value("N#Cc1cncn1CC(O)(Cc1ccccc1F)c1ccccc1 (stereo not shown) [I-08]")
"2.51^[a]"
>>> meas_value("N#Cc1cncn1CC(O)(Cc1ccccc1F)c1ccco1 (stereo not shown) [I-30]")
"2.15^[a]"
>>> meas_value("N#Cc1cncn1CC(O)(Cc1cccc(F)c1F)C1(c2ccccc2)CC1 (stereo not shown) [I-23]")
"3.25^[a]"
>>> meas_value("N#Cc1cncn1CC(O)(Cc1ccc(F)c(F)c1F)c1ccccc1 (stereo not shown) [I-21]")
"2.57^[a]"
>>> meas_value("N#Cc1cncn1CC(O)(Cc1ccccc1Cl)c1ccc(F)cc1F (stereo not shown) [I-01]")
"3.00^[a]"
>>> meas_value("N#Cc1cncn1CC(O)(Cc1ccccc1F)c1ccc(Cl)s1 (stereo not shown) [I-19]")
"2.78^[a]"
>>> meas_value("N#Cc1cncn1CC(O)(Cc1ccccc1F)c1ccc(F)cc1F (stereo not shown) [I-20]")
"2.68^[a]"
>>> meas_value("N#Cc1cncn1CC(O)(Cc1cccc(Cl)c1F)c1ccco1 (stereo not shown) [I-33]")
"2.57^[a]"
>>> meas_value("N#Cc1cncn1CC(O)(Cc1cccc(F)c1F)c1ccco1 (stereo not shown) [I-31]")
"2.25^[a]"
>>> meas_value("N#Cc1cncn1CC(O)(Cc1ccc(F)c(F)c1F)c1ccc(F)cc1F (stereo not shown) [I-03]")
"2.96^[a]"
